Target: Programmed cell death protein 1/Programmed cell death 1 ligand 1 (Homo sapiens)
Experiment: Inhibition of PD-1/PD-L1 interaction (unknown origin) incubated for 1 hr by HTRF assay

molecular_string: N#Cc1cccc(COc2cc(OCc3cccc(-c4ccccc4F)c3)ccc2CNCCO)c1
unit_of_measure: µM
qualifying_sign: >
IC50: 500

molecular_string: COc1c(NCc2ccc(OCc3cccc(C#N)c3)c(CNCCO)c2)cccc1-c1ccc2cc[nH]c2c1
unit_of_measure: µM
qualifying_sign: >
IC50: 32

molecular_string: COc1c(COc2ccc(CNCCNC(C)=O)c(OCc3cccc(C#N)c3)c2)cccc1-c1cccc(F)c1
unit_of_measure: µM
qualifying_sign: =
IC50: 5.5

molecular_string: COC(=O)c1ccc(COc2ccc(CNc3cccc(-c4ccccc4)c3OC)cc2CNCCO)cc1
unit_of_measure: µM
qualifying_sign: >
IC50: 32

molecular_string: Cc1c(COc2ccc(CNCCO)c(OCc3cccc(C#N)c3)c2)cccc1-c1ccccc1F
unit_of_measure: µM
qualifying_sign: =
IC50: 37.6

molecular_string: COc1c(COc2ccc(CNCCO)c(OCc3cncc(C#N)c3)c2)cccc1-c1ccccc1
unit_of_measure: µM
qualifying_sign: =
IC50: 0.8

molecular_string: N#Cc1cccc(COc2cc(OCc3cccc(-c4ccccc4F)c3F)ccc2CN[C@@H](CO)C(=O)O)c1
unit_of_measure: µM
qualifying_sign: =
IC50: 115

molecular_string: COc1c(COc2ccc(OCc3cccc(C#N)c3)c(CNCCO)c2)cccc1-c1ccccc1
unit_of_measure: µM
qualifying_sign: >
IC50: 32

molecular_string: N#Cc1cncc(COc2cc(OCc3cccc(-c4ccccc4F)c3Cl)ccc2CN[C@@H](CO)C(=O)O)c1
unit_of_measure: µM
qualifying_sign: =
IC50: 7.3

molecular_string: COc1c(COc2ccc(CNCCNC(C)=O)c(OCc3cccc(C#N)c3)c2)cccc1-c1ccc2c(c1)OCCO2
unit_of_measure: µM
qualifying_sign: =
IC50: 2.9

molecular_string: COc1c(COc2ccc(CN[C@@H](CO)C(=O)O)c(OCc3cccc(C#N)c3)c2)cccc1-c1ccccc1
unit_of_measure: µM
qualifying_sign: =
IC50: 2.6

molecular_string: COc1c(COc2ccc(CNCCNC(C)=O)c(OCc3cccc(C#N)c3)c2)cccc1-c1ccc2ccccc2c1
unit_of_measure: µM
qualifying_sign: =
IC50: 16

molecular_string: N#Cc1cccc(COc2cc(OCc3cccc(-c4ccccc4F)c3Cl)ccc2CNCCO)c1
unit_of_measure: µM
qualifying_sign: =
IC50: 12.7

molecular_string: COc1c(COc2ccc(CN[C@H](CO)C(=O)O)c(OCc3cccc(C#N)c3)c2)cccc1-c1ccccc1
unit_of_measure: µM
qualifying_sign: =
IC50: 3.2

molecular_string: N#Cc1cncc(COc2cc(OCc3cccc(-c4ccccc4F)c3Cl)ccc2CNCCO)c1
unit_of_measure: µM
qualifying_sign: =
IC50: 24

molecular_string: COc1c(NCc2ccc(OCc3ccc(F)cc3)c(CNCCO)c2)cccc1-c1ccccc1
unit_of_measure: µM
qualifying_sign: >
IC50: 32

molecular_string: COc1c(NCc2ccc(OCc3ccc(F)cc3)c(CNCCO)c2)cccc1-c1ccc2ccccc2c1
unit_of_measure: µM
qualifying_sign: >
IC50: 32

molecular_string: COc1c(COc2ccc(CNCCO)c(OCc3cccc(C#N)c3)c2)cccc1-c1ccccc1F
unit_of_measure: µM
qualifying_sign: =
IC50: 1660

molecular_string: CC(=O)NCCNCc1ccc(OCc2cccc(-c3ccccc3F)c2C)cc1OCc1cncc(C#N)c1
unit_of_measure: µM
qualifying_sign: =
IC50: 24.3

molecular_string: COc1c(COc2ccc(CN[C@@H](CO)C(=O)O)c(OCc3cncc(C#N)c3)c2)cccc1-c1ccccc1F
unit_of_measure: µM
qualifying_sign: =
IC50: 616

molecular_string: COc1c(COc2ccc(CNCCNC(C)=O)c(OCc3cccc(C#N)c3)c2)cccc1-c1ccccc1
unit_of_measure: µM
qualifying_sign: =
IC50: 23.3

molecular_string: N#Cc1cccc(COc2cc(OCc3cccc(-c4ccccc4F)c3F)ccc2CNCCO)c1
unit_of_measure: µM
qualifying_sign: =
IC50: 130

molecular_string: COc1c(COc2ccc(CNCCNC(C)=O)c(OCc3ccc(F)cc3)c2)cccc1-c1ccccc1
unit_of_measure: µM
qualifying_sign: >
IC50: 32

molecular_string: COc1c(COc2ccc(CNCCO)c(OCc3cccc(C#N)c3)c2)cccc1-c1ccccc1
unit_of_measure: µM
qualifying_sign: =
IC50: 2.4

molecular_string: COc1c(COc2ccc(CNCCNC(C)=O)c(OCc3cccc(C#N)c3)c2)cccc1-c1ccccc1F
unit_of_measure: µM
qualifying_sign: =
IC50: 2.4

molecular_string: COc1c(NCc2ccc(OCc3cccc(C#N)c3)c(CNCCNC(C)=O)c2)cccc1-c1ccccc1
unit_of_measure: µM
qualifying_sign: >
IC50: 32

molecular_string: COc1c(COc2ccc(CNCCNC(C)=O)c(OCc3cccnc3F)c2)cccc1-c1ccccc1
unit_of_measure: µM
qualifying_sign: =
IC50: 12.9

molecular_string: COc1c(NCc2ccc(OCc3cccc(C#N)c3)c(CNCCO)c2)cccc1-c1ccccc1
unit_of_measure: µM
qualifying_sign: =
IC50: 32

molecular_string: COc1cc(COc2cc(OCc3cccc(-c4ccccc4)c3OC)ccc2CNCCNC(C)=O)ccn1
unit_of_measure: µM
qualifying_sign: =
IC50: 13.7

molecular_string: COc1c(COc2ccc(CNCC(=O)O)c(OCc3cccc(C#N)c3)c2)cccc1-c1ccccc1
unit_of_measure: µM
qualifying_sign: =
IC50: 5.5

molecular_string: COc1c(COc2ccc(CN3CCC[C@H]3C(=O)O)c(OCc3cccc(C#N)c3)c2)cccc1-c1ccccc1
unit_of_measure: µM
qualifying_sign: =
IC50: 18.9

molecular_string: COc1c(COc2ccc(CNCCNC(C)=O)c(OCc3cccc(C#N)c3)c2)cccc1-c1ccc(F)cc1
unit_of_measure: µM
qualifying_sign: =
IC50: 16

molecular_string: COc1c(COc2ccc(OCc3cccc(C#N)c3)c(CNCCNC(C)=O)c2)cccc1-c1ccccc1
unit_of_measure: µM
qualifying_sign: >
IC50: 32

====

Assay: Half life in Sprague-Dawley rat at 40 mg/kg, IG measured upto 48 hrs by LC-MS/MS analysis
Format: ADME, organism-based
Details: Sprague-Dawley, in vivo, po

molecular_string: N#Cc1cncc(COc2cc(OCc3cccc(-c4ccccc4F)c3Cl)ccc2CNCCO)c1
half-life: 1.72 h

====

Target: Programmed cell death protein 1/Programmed cell death 1 ligand 1 (Homo sapiens)
Test: Inhibition of PD-1/PD-L1 interaction (unknown origin) incubated for 1 hr by HTRF assay
# note: exactly 20 µM is not below, so it is criterion not met; use criterion met for IC50 strictly under it

compound: COc1c(COc2ccc(CNCCNC(C)=O)c(OCc3cncc(C#N)c3)c2)cccc1-c1ccccc1F
assigned_label: criterion not met
//
compound: COc1c(COc2ccc(CN[C@H](C(=O)O)C(C)O)c(OCc3cccc(C#N)c3)c2)cccc1-c1ccccc1 (single isomer, unassigned)
assigned_label: criterion met
//
compound: COc1c(COc2ccc(CN3CCC[C@@H]3C(=O)O)c(OCc3cccc(C#N)c3)c2)cccc1-c1ccccc1
assigned_label: criterion met
//
compound: COc1c(COc2ccc(CN[C@@H](CO)C(=O)O)c(OCc3cccc(C#N)c3)c2)cccc1-c1ccccc1F
assigned_label: criterion not met
//
compound: COc1c(COc2cc(OCc3cncc(C#N)c3)c(CNCCNC(C)=O)cc2Cl)cccc1-c1ccccc1F
assigned_label: criterion not met
//
compound: COc1c(COc2ccc(CN3CC(C(=O)O)C3)c(OCc3cncc(C#N)c3)c2)cccc1-c1ccccc1
assigned_label: criterion met
//
compound: COc1c(COc2ccc(CN3C[C@@H](O)C[C@@H]3C(=O)O)c(OCc3cccc(C#N)c3)c2)cccc1-c1ccccc1
assigned_label: criterion not met
//
compound: COc1c(NCc2ccc(OCc3ccc(C(=O)O)cc3)c(CNCCO)c2)cccc1-c1ccccc1
assigned_label: criterion not met

====

Experiment: Bioavailability in Sprague-Dawley rat at 40 mg/kg, IG measured upto 48 hrs by LC-MS/MS analysis
Type: ADME, organism-based
Conditions: in vivo, po

molecular_string: N#Cc1cccc(COc2cc(OCc3cccc(-c4ccccc4F)c3Cl)ccc2CNCC(=O)O)c1
unit_of_measure: %
bioavailability: 42
--
molecular_string: N#Cc1cncc(COc2cc(OCc3cccc(-c4ccccc4F)c3Cl)ccc2CNCCO)c1
unit_of_measure: %
bioavailability: 114

====

Test: Apparent volume of distribution in Sprague-Dawley rat at 8 mg/kg, iv measured upto 48 hrs by LC-MS/MS analysis
Type: ADME, organism-based
Conditions: Sprague-Dawley, in vivo, read-out: Vz
outcome_measure: Vd (L/kg)

molecular_string: N#Cc1cncc(COc2cc(OCc3cccc(-c4ccccc4F)c3Cl)ccc2CNCCO)c1
outcome_measure: Vd
recorded_value: 1.09

====

Molecular target: Programmed cell death protein 1/Programmed cell death 1 ligand 1 (Homo sapiens, UniProt Q9NZQ7)
Sequence (Q15116 whole entry): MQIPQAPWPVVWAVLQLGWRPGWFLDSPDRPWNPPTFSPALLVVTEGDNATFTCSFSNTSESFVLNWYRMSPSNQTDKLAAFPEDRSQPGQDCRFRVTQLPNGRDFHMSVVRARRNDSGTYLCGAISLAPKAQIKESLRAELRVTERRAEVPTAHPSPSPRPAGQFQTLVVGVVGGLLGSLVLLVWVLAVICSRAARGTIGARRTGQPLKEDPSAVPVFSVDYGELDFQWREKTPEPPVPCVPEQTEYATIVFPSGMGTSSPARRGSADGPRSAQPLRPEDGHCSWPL
Sequence (Q9NZQ7 whole entry): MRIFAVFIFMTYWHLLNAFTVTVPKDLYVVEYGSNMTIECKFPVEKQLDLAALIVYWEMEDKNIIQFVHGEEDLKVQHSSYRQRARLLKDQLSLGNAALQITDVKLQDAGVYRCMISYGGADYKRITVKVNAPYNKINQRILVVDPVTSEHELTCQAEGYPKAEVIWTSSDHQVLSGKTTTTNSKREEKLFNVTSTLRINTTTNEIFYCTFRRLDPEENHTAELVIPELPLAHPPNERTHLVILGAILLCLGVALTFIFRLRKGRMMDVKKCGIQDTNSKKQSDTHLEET
Assay: Inhibition of PD-1/PD-L1 interaction (unknown origin) incubated for 1 hr by HTRF assay
This section presents compounds with their documented log10(IC50) values.
outcome_measure: log10(IC50) (log10 of the value in µM)

molecular_string: COc1c(COc2ccc(CNCCO)c(OCc3cncc(C#N)c3)c2)cccc1-c1ccccc1F
log10(IC50): 2.62
//
molecular_string: COc1c(COc2ccc(CNCCNC(C)=O)c(OCc3cncc(C#N)c3)c2)cccc1-c1ccccc1
log10(IC50): 0.20
//
molecular_string: COc1c(COc2ccc(CNCCNC(C)=O)c(OCc3cccc(C)c3)c2)cccc1-c1ccccc1
log10(IC50): 1.26
//
molecular_string: COc1c(COc2cc(OCc3cncc(C#N)c3)c(CNCCO)cc2Cl)cccc1-c1ccccc1F
log10(IC50): 2.54
//
molecular_string: COc1c(COc2ccc(CNCCNC(C)=O)c(OCc3ccc(C#N)cc3)c2)cccc1-c1ccccc1
log10(IC50): 1.36
//
molecular_string: N#Cc1cccc(COc2cc(OCc3cccc(-c4ccccc4F)c3Cl)ccc2CN2CC(C(=O)O)C2)c1
log10(IC50): 1.53
